Assay: plasmodial surface anion channel blockers, osmotic lysis – cell-based, P. falciparum Indochina, OD700, 2 h, primary screen (AID 1155);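 also: lysis reports solute entry through the parasite surface anion channel PSAC; channel blockers reduce lysis of infected cells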
Conditions: P. falciparum Indochina infected erythrocytes, called active from +8 up or from −8 down
Activity calls are given as the source filed them.
Hi there, use one of these labels in your reply, thanks! y for active, n for inactive

>  <molecule>
O=C1OCCC=C[C@H]2OC34C=CCN(Cn5nnc6ccccc65)C(=O)[C@H]3N(CCCO)C(=O)[C@@H]4C12 (stereo partly drawn)

>  <answer label>
n

$$$$
>  <molecule>
C#Cc1cc2ccccc2oc1=O

>  <answer label>
n

$$$$
>  <molecule>
C=CCN1C(=O)[C@]2(CCC(=O)OC(C)(C)C)N=C(c3ccc(OCCCO)cc3)O[C@@H]2c2ccccc21

>  <answer label>
y

$$$$
>  <molecule>
O[C@@H](Cc1ccccc1)[C@@H](/C=C/C1CC1)N(CC#Cc1ccccc1)Cc1ccccc1Br

>  <answer label>
n

$$$$
>  <molecule>
NC(=O)[C@@]1(Cc2ccccc2)COC(c2ccc(OCCCO)cc2)=N1

>  <answer label>
n

$$$$
>  <molecule>
NC(=O)NCC#Cc1ccc2c(c1)[C@]1(C(=O)N2)[C@H](C(=O)N2CCN(c3ncccn3)CC2)[C@H]2C(=O)O[C@H](c3ccccc3)[C@H](c3ccccc3)N2[C@@H]1c1ccc(O)cc1

>  <answer label>
n

$$$$

Query :: Can you look up the reported call for COCC(=C=CC[C@H](O)c1ccc(OCCO)cc1)CCO for me?
Result :: n

Query :: // outcome(item) with item = O=C(O)[C@@H]1C[C@@H]2C(=O)N3CCC[C@H]3C(=O)N2[C@@H]1c1ccc(O)cc1
Result :: n

----------
Experiment: resazurin metabolic signal in A549 cells – cell-based, resazurin fluorescence, 24 h, PK04 Diversity Set, profiling panel (AID 1171); also: test concentration not given here
Conditions: A549 viability, higher = more signal, called active from +8 up or from −8 down
Returns the class for an entry based on its z-score. Class ranges: zone 1 = under -0.8, zone 2 = from -0.8 up to 0.4, zone 3 = 0.4 and over

Here are 8 molecules together with their reported answers.
>  <molecule>
COC(=O)[C@@]1(Cc2ccc(F)cc2)[C@H]2c3cc(C(=O)N(C)C)n(CCc4ccc(OC)c(Br)c4)c3C[C@H]2CN1C(=O)c1ccccc1

>  <answer label>
zone 1

$$$$
>  <molecule>
C=CCC(OC(C)=O)[C@@H]1[C@@H](N(Cc2cccc3ccccc23)C(=O)Cc2ccc(F)cc2)c2cc(OCCCO)ccc2N1C(=O)c1ccc2ccccc2c1 (stereo not given in full)

>  <answer label>
zone 3

$$$$
>  <molecule>
C=CCN1C(=O)[C@]2(CCS(=O)(=O)c3ccccc3)N=C(c3ccc(OCCCO)cc3)O[C@@H]2c2ccccc21

>  <answer label>
zone 1

$$$$
>  <molecule>
C=CCOC(=O)[C@@]1(Cc2ccccc2)C[C@H]2CO[C@H](c3ccc(OC)cc3)N2C1=O

>  <answer label>
zone 3

$$$$
>  <molecule>
CO[C@H]1O[C@H](CO)[C@@H](OC(=O)Nc2ccccc2)[C@H](OC(=O)c2cc3ccccc3[nH]2)[C@H]1OC(=O)c1cc2ccccc2[nH]1

>  <answer label>
zone 1

$$$$
>  <molecule>
COC(=O)[C@@]1(Cc2ccccc2)[C@H]2c3cc(C(=O)N(C)C)n(Cc4ccc(C)o4)c3C[C@H]2CN1C(=O)c1ccccc1

>  <answer label>
zone 1

$$$$
>  <molecule>
C=C(/C(=C/C[C@H](OC(=O)c1ccncc1)c1ccc(CO)o1)c1cnc2ccccc2c1)C(C)C

>  <answer label>
zone 2

$$$$
>  <molecule>
N[C@@H](Cc1ccccc1)C(=O)NCc1cn(Cc2ccccc2)nn1

>  <answer label>
zone 3

$$$$

Query :: For COc1ccc(C#Cc2ccc3c(c2)[C@]2(C(=O)N3)[C@H](C(=O)O)[C@H]3C(=O)O[C@H](c4ccccc4)[C@H](c4ccccc4)N3[C@@H]2c2ccc(O)cc2)cc1 , which z-score bin applies?
Result :: zone 2

Query :: Sort C=CCOC(=O)[C@@H]1[C@H]2C(=O)O[C@H](c3ccccc3)[C@H](c3ccccc3)N2[C@H](c2ccc(OCCOC(=O)[C@@H]3C[C@@H]4C(=O)N[C@@H](CCCC[N+](C)(C)C)C(=O)N4[C@@H]3c3ccc(O)cc3)cc2)[C@@]12C(=O)Nc1ccc(I)cc12 into one of the categories.
Result :: zone 2

Query :: Hi there! Could you help me figure out the category for COCC(=C=CC[C@H](O)c1ccc(OCCO)cc1)CCO please?
Result :: zone 3

Query :: Form: Item = CCCCCN1CC=CC23O[C@@H]4/C=C\CCCOC(=O)C4[C@H]2C(=O)N(C(C)CO)[C@@H]3C1=O (stereo not given in full) ; Class = ?
Result :: zone 3

Query :: State the band of CC(CO)N1C(=O)[C@]2(C)C3C(=O)OCCC/C=C\[C@H]3OC23C=CCN(c2ccc(Cl)cc2)C(=O)[C@@H]13 (stereo not given in full)
Result :: zone 2

Query :: Consider C=CC[C@@H](OC(=O)Nc1ccc(SC)cc1)c1ccc(O)c(F)c1 . To which z-score class does it belong?
Result :: zone 2

Query :: Could you place COc1ccc(C(=O)Nc2ccc(CN3C(=O)[C@]4(O[C@H](CC(=O)N5Cc6ccccc6C[C@H]5CO)[C@@H]([Si](C)(C)c5ccc(OC)cc5)[C@@H]4C)c4ccccc43)cc2)cc1 in its proper category? Many thanks.
Result :: zone 1

Query :: Sort into band: COc1ccc(CCNC(=O)[C@@]2(Cc3ccccc3I)c3ccccc3C(=O)N(C3CCCCC3)[C@H]2c2ccc(CO)cc2)cc1
Result :: zone 2

----------
Assay: probe aWnt5a binding to arrayed compounds – biochemical, biotinylated probe, 635/667 nm fluorescence, primary screen (AID 1113);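 also: score merges 667 nm fluorescence intensity with signal-to-noise per printed feature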
Conditions: small-molecule microarray, higher = more signal
quantity: composite z-score
Give a plain numeric answer without units written out.

Query :: Answer with the recorded composite z-score for the compound listed here: CCCCNC(=O)c1ccc(C#CC(C)(C)C)c(OC(C)=O)c1
Result :: -0.159

Query :: # return recorded composite z-score for input COC(=O)c1c(CC[C@@H](CO)NC(=O)N[C@@H](C)Cn2cc(-c3ccccn3)nn2)oc(C(C)=O)c1C(=O)OC
Result :: -0.0981

Query :: Query composite z-score for [N-]=[N+]=Nc1ccccc1C[C@@]1(C(=O)NCCN2CCOCC2)N=C(c2ccc(OCCCO)cc2)O[C@@H]1c1ccccc1N=[N+]=[N-]
Result :: 0.0543

Query :: Write down composite z-score measured for item CCCC[C@@H](O)C1=C(COC)C[C@H]2C(=O)N(Cc3ccccc3)C(=O)[C@H]2[C@H]1CO
Result :: 0.0102

Query :: Consider the compound C=CC[C@@]1(C(=O)NCCCOC)N=C(c2ccc(OCCCO)cc2)O[C@@H]1c1ccccc1N=[N+]=[N-] and give its recorded composite z-score.
Result :: -0.0519

Query :: Answer with the recorded composite z-score for the compound listed here: CCOC(=O)C[C@H]1[C@H](OC(=O)c2ccc(C(=O)c3ccccc3)cc2)[C@@H](NC(=O)c2ccc(-c3ccccc3)cc2)c2cc(OCCCO)ccc2N1C(=O)Cc1ccc(OC)cc1
Result :: -0.0236

Query :: For CN(C)CCCCCCNC(=O)[C@@H]1C[C@@H]2C(=O)N3CCC[C@H]3C(=O)N2[C@@H]1c1cccc(OCCO)c1 , write its composite z-score.
Result :: 0.0566

Query :: Quote composite z-score reported for C=CC[C@@H](OC(=O)Nc1ccc(SC)cc1)c1ccc(O)c(F)c1 please.
Result :: -0.0991

Query :: Fill in composite z-score for record COC(=O)C/C=C/C[C@]1(O)C(=O)N(C)c2ccccc21
Result :: -0.122

----------
Listed here are molecules together with their documented z-score.
Experiment: optical density shifts of acrAB sulA E. coli – strain DRC41, OD650, 48 h, E. coli filamentation inducer project, primary screen (AID 1152);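 also: E. coli MC1000 strain DRC41 lacking acrAB efflux pump and sulA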
Conditions: higher = more signal, called active from +8 up or from −8 down
I'd appreciate a reply containing only the number, no unit.

Past entries and their recorded results:
>  <molecule>
COC(=O)[C@@H]1N=C(c2ccc(OCCCO)cc2)O[C@@H]1C

>  <z-score>
0.608

$$$$
>  <molecule>
COCC(=C=CC[C@H](O)c1ccc(CO)o1)CCO

>  <z-score>
-0.434

$$$$
>  <molecule>
CN(C)C(=O)[C@]1(CCC(=O)OC(C)(C)C)N=C(c2ccc(OCCCO)cc2)O[C@@H]1c1ccccc1CN=[N+]=[N-]

>  <z-score>
0.636

$$$$
>  <molecule>
CO[C@H]1O[C@H](CO)[C@@H](OC(=O)CCc2ccccc2)[C@@H]2OC(=O)[C@@H](Cc3ccccc3)C/C=C/C[C@H](Cc3ccccc3)C(=O)O[C@@H]12

>  <z-score>
0.453

$$$$
>  <molecule>
CCCC[C@@H](O)C1=C(COC)C[C@H]2C(=O)N(C)C(=O)[C@H]2[C@H]1CO

>  <z-score>
2.54

$$$$
>  <molecule>
COC(=O)[C@@]1(Cc2ccc(F)cc2)[C@H]2c3cc(C(=O)N(C)C)n(Cc4ccc(OC(F)(F)F)cc4)c3C[C@H]2CN1C(=O)c1ccccc1

>  <z-score>
-1.4

$$$$
>  <molecule>
CN(C)C(=O)[C@@]1(Cc2ccccc2)N=C(c2ccc(OCCCO)cc2)O[C@H]1c1ccccc1

>  <z-score>
0.756

$$$$
>  <molecule>
CC(C)C(CO)N1C(=O)[C@@H]2[C@H]3C(=O)OCC=C[C@H]3OC23C=CCN(c2ccc(Cl)cc2)C(=O)[C@@H]13 (some centres not stated)

>  <z-score>
0.284

$$$$
>  <molecule>
C=CC[C@@]1(C(=O)NCCCOC)N=C(c2ccc(OCCCO)cc2)O[C@@H]1c1ccccc1

>  <z-score>
1.3

$$$$
>  <molecule>
CCCC=C(CCC)[C@@H](NC(=O)c1cccs1)c1ccc(C(=O)OC)cc1

>  <z-score>
-1.24

$$$$

Query :: Fill in reported z-score for this entry: [N-]=[N+]=Nc1ccccc1C[C@]1(C(=O)NCCN2CCOCC2)COC(c2ccc(OCCCO)cc2)=N1
Result :: 1.87

Query :: Look up z-score of CC#CCO[Si](C#Cc1ccccc1)(C(C)C)C(C)C and report it.
Result :: -0.112

Query :: Note z-score for the molecule shown: Cc1ccc(S[C@]2(C(=O)NCC(F)(F)F)CC(=O)N(Cc3cc(C(F)(F)F)cc(C(F)(F)F)c3)[C@@H]2c2ccc(CO)cc2I)cc1
Result :: 0.168

Query :: Give recorded z-score. Cc1ccc(S[C@]2(C(=O)NCCN3CCOCC3)CC(=O)N(Cc3ccccc3Cl)[C@@H]2c2ccc(CO)cc2I)cc1
Result :: 0.377

Query :: Respond only with z-score recorded for CC(=O)N1CC2(CC2)CC1c1ccccc1 (configuration not stated)
Result :: -1.35

Query :: For the molecule COc1ccc([Si](C)(C)[C@@H]2[C@@H](CC(=O)N3Cc4ccccc4C[C@H]3CO)O[C@]3(C(=O)N(Cc4ccc(N5C(=O)c6cccc7cccc5c67)cc4)c4ccccc43)[C@H]2C)cc1 , give its measured z-score value.
Result :: -0.967

Query :: // Input: COc1ccc(CCNC(=O)[C@@]2(Sc3ccc(C)cc3)CC(=O)N(Cc3ccccc3C(F)(F)F)[C@@H]2c2ccc(CO)cc2I)cc1 . Output its z-score only.
Result :: 0.729

Query :: Indicate its recorded z-score; the molecule in question is C#CCN(Cc1ccccc1Br)[C@H](/C=C/c1ccccc1)[C@@H](O)Cc1ccccc1
Result :: 1.47

Query :: Note z-score for the molecule shown: Oc1ccc2cc[n+](Cc3cc4c(cc3Br)OCO4)cc2c1
Result :: 1.27

Query :: State, in one line, measured z-score of CC1CC/C=C\[C@H]2OC34C=CCN(c5ccc6ccccc6c5)C(=O)[C@H]3N(CCCO)C(=O)[C@@H]4C2C(=O)O1 (some centres not stated)
Result :: -0.866

Query :: State its z-score for this molecule: CCCC[C@@H](O)C1=C(COC)C[C@H]2C(=O)N(Cc3ccccc3)C(=O)[C@H]2[C@H]1CO
Result :: 0.878

Query :: Please list z-score recorded for the molecule NCCCCCNC(=O)[C@@H]1C[C@@H]2C(=O)N[C@@H](CCCCN)C(=O)N2[C@@H]1c1ccc(O)cc1
Result :: -0.175
